# normalized growth listing for each entry below
- protocol.summary: chemical genetic growth profiling, strain panel (AID 1159580);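 note: tested at 20 µM; growth read once vehicle control cultures reached saturation at 30 °C; 1 = growth at the plate median or of vehicle wells; lower values mean less growth of the strain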
- conditions: S. cerevisiae deletion strains, growth OD, locus YML120C, strain ndi1, hits give low values
About 2,000 (36%) of roughly 5,500 compounds were called active. About 18% were inconclusive and are not listed. The list shows a part of the results.
Number only, no unit.

See these solved cases before continuing.
# compound, normalized growth
measured = [
    ("COP(=S)(OC)SCn1nnc2ccccc2c1=O", 1.01),
    ("O=C1c2ccc(O)c(O)c2C(=O)c2c(O)ccc(O)c21", 0.768),
    ("COc1cc(O)c(C(=O)O)c(O)c1", 0.998),
]

Request the reported normalized growth associated with CC(C)=CCOc1c2occc2cc2ccc(=O)oc12
0.875

Try the compound O=c1ccc2cc(O[C@@H]3O[C@H](CO)[C@@H](O)[C@H](O)[C@H]3O)c(O)cc2o1
0.978

Try the compound COc1cc2ccc(=O)oc2c(OC)c1OC
0.979

Try the compound C[C@]12CCC3C(CC[C@H]4C[C@@H](O)CC[C@]34C)C1CCC2=O (stereo partly specified)
0.935

Try the compound COc1ccc2ccc(=O)oc2c1CC=C(C)C
0.822

Try the compound O=C1OC(=O)C2C3CCC(O3)C12 (stereo unspecified)
0.998

Try the compound CC(C)CCCC(C)[C@H]1CCC2C3CC[C@H]4CC(=O)CC[C@]4(C)C3CC[C@@]21C (stereo partly specified)
0.949

Try the compound Cc1cc(O)c2c(c1O)C(=O)c1c(O)cc(C)c(O)c1C2=O
0.912

Try the compound CC(C)=CCC/C(C)=C/COc1ccc2ccc(=O)oc2c1
0.973

Try the compound COc1cc2ccc(=O)oc2cc1O
1

###

- protocol.summary: chemical genetic growth profiling, strain panel (AID 1159580);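 note: tested at 20 µM; growth read once vehicle control cultures reached saturation at 30 °C; 1 = growth at the plate median or of vehicle wells; lower values mean less growth of the strain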
- conditions: S. cerevisiae deletion strains, growth OD, locus YDR334W, strain swr1, hits give low values
In all, about 5,500 compounds went through this assay and about 2,000 (36%) were called active. Inconclusive results (about 18%) are left out. This is one part of the list.
# normalized growth listing for each entry below
Number only, no unit.

See these solved cases before continuing.
# molecule, test.readout, value.observed
measured = [
    ("Nc1ncnc2nc[nH]c12", "normalized growth", 0.982),
    ("C[C@H]1C(=O)O[C@@H]2CCN3CC=C(COC(=O)[C@](C)(O)[C@]1(C)O)[C@H]23", "normalized growth", 0.995),
]

Request the reported normalized growth associated with C=C(C)c1cc2cc(C(C)=O)c(O)cc2o1
0.983

###

- protocol.summary: chemical genetic growth profiling, strain panel (AID 1159580);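 note: tested at 20 µM; growth read once vehicle control cultures reached saturation at 30 °C; 1 = growth at the plate median or of vehicle wells; lower values mean less growth of the strain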
- conditions: S. cerevisiae deletion strains, growth OD, locus YPL256C, strain CLN2, hits give low values
Out of some 5,500 compounds screened, about 2,000 (36%) were called active. About 18% were inconclusive and are not listed. Some of the results follow.
# normalized growth listing for each entry below

Request the reported normalized growth associated with Cc1ncc([N+](=O)[O-])n1CCO
1.1 (inactive)

Try the molecule CCC1(c2ccccc2)OC(c2cc(Cl)cc(Cl)c2O)Nc2ccccc21 (centres undefined)
0.47 (active)

Try the molecule COc1cc(OC)c(C(C)=O)c(O)c1C
0.91 (inactive)

Try the molecule CC(Oc1ccc(Cl)cc1Cl)C(=O)NNC(=S)Nc1ccccc1 (centres undefined)
1.12 (inactive)

Try the molecule COc1ccc(/C(C#N)=C2C=C/C(=N/O)C(Cl)=C\2)cc1
0.967 (inactive)

Try the molecule N/C(=N/OC(=O)c1ccccc1Cl)c1cccc(CS(=O)(=O)c2ccc(Cl)cc2)c1
1.2 [resistant] (active)

Try the molecule O=C(O)c1cccc(O)c1O
1.05 (inactive)

Try the molecule COc1cc(O)cc(O)c1C(C)=O
0.97 (inactive)

Try the molecule N/C(=N/OC(=O)c1ccccc1Cl)c1ccc2nonc2c1
0.963 (inactive)

Try the molecule COP(=S)(OC)Oc1cc(Cl)c(Cl)cc1Cl
0.151 (active)

Try the molecule O=C(O)CCCN1C(=O)c2cccc3cccc(c23)C1=O
1.03 (inactive)

Try the molecule CC(=O)Oc1ccc2c(c1)CCC1C2CC[C@@]2(C)C1CC[C@@H]2OC(C)=O (some centres undefined)
0.924 (inactive)

Try the molecule C[C@]12C=CC(=O)C=C1CCC1C2C(=O)C[C@@]2(C)C1CC[C@]2(O)C(=O)CO (some centres undefined)
1.05 (inactive)

Try the molecule COc1c2occc2cc2ccc(=O)oc12
1.1 (inactive)

Try the molecule COc1cc(O)c(C(C)=O)c(O)c1
0.992 (inactive)

Try the molecule COc1ccc2c(c1)[nH]c1c(C)nccc12
1.01 (inactive)

Try the molecule CC1=C(C(=O)O)N2C(=O)[C@@H](NC(=O)[C@H](N)C3=CCC=CC3)C2SC1 (some centres undefined)
0.956 (inactive)

Try the molecule C=C(C)c1cc2cc(C(C)=O)c(O)cc2o1
0.897 (inactive)

Try the molecule COc1cc(OC)cc(/C(N)=N\O)c1
0.891 (inactive)

Try the molecule CCNc1nc(Cl)nc(NC(C)C)n1
0.996 (inactive)
